# Tested on: SF-539 CNS
# method-description: NCI tumour cell line growth inhibition, 48 h; in the data active = GI50 below about 0.43 µM; inactive = the rest
Respond only with the outcome that fits, drawn from y (active), n (inactive)

compound	target-or-system	label-class
COc1cc(/C(Cl)=C/C=C/C(=O)c2c(C)[n+]([O-])c3ccc(Cl)cc3[n+]2[O-])cc(OC)c1OC	SF-539 CNS	n

Fill in: this test's call for COC1=CC(c2ccc[nH]2)=N/C1=C\c1[nH]c(C)c(C(=O)OCc2ccccc2)c1C is ___ y

Fill in: this test's call for C[n+]1c(/C=C\C=C\N2CCCCC2)sc2ccccc21 is ___ n

Fill in: this test's call for C=C1C(=O)O[C@H]2[C@H]1CC/C(CNC(=O)/C=C/c1ccc(Br)cc1)=C\CC[C@@]1(C)O[C@@H]21 is ___ n

Fill in: this test's call for Cc1ccccc1NC(=S)Nc1ccccn1 is ___ n

====

# Test system: UACC-62 melanoma
# method-description: NCI tumour cell line growth inhibition, 48 h
parameter: TGI (µM)
Provide the reading as a plain figure in µM.

Answered examples (6):
compound	measure-unit	TGI
O=C(c1ccccc1)c1c(NCC(O)CN2CCCC2)n(Cc2ccccc2)c(=O)n(Cc2ccccc2)c1=O (stereo unspecified)	µM	33.2
O=C(Nc1ccc(Cl)cc1Cl)c1ccc(NC2=C(Cl)C(=O)N(Cc3ccccc3)C2=O)cc1	µM	35.3
CC[n+]1cnc(N)c2c(-c3ccc(Cl)cc3)cn(-c3ccc(C)cc3)c21	µM	24.3
CCC[CH2][Sn]([CH2]CCC)([O]C(=O)c1c(F)cccc1F)[O]C(=O)c1c(F)cccc1F	µM	2.1
CC1=C([Se]CC(OC(=O)[C@@H](CSSC(C)(C)C)NC(=O)OC(C)(C)C)C(=O)NC(C)(C)C)C(=O)c2ccccc2C1=O (stereo partly specified)	µM	2.84
CC(C)(C)OC(=O)NCCNC1=CC(=O)c2nc3ccccc3c3ccnc1c23	µM	43.2

CC1=CCC[C@@]2(C)C(CC[C@@H]2C(C)/C=C/C(C)C)c2ccc(cc2C(=O)O)C[C@@H](O)CC1 (stereo partly specified) yielded TGI of 23

COc1ccc(-c2nc(N)c(C#N)c3c2CCS(=O)(=O)c2ccc(C)cc2-3)cc1OC yielded TGI of 51.7

====

# Test system: CAKI-1 renal
# method-description: NCI tumour cell line growth inhibition, 48 h
TGI: recorded values

compound	recorded-measurement
COc1ccc(S(=O)(=O)NC(C)C(=O)O)cc1 (centres undefined)	> 100 µM
O=C(CSCC(=O)N/N=C/c1cc(I)cc(I)c1O)N/N=C/c1cc(I)cc(I)c1O	> 100 µM
C=C1C(=O)O[C@H]2[C@H]1CC/C(CNC(=O)/C=C/c1ccc(Br)cc1)=C\CC[C@@]1(C)O[C@@H]21	2.34 µM
COc1cccc2c1C(=O)c1c(O)c3c(c(O)c1C2=O)CC(O)(C(C)=O)CC3OC1CC(N)C(O)C(C)O1 (centres undefined)	0.015 µg/mL
CCCCCCCCCCCOC(=S)NC(C)C	39.9 µM
COC(=O)[C@@H](NC(=O)NC(=O)NC(=O)CI)C(C)C	2.73 µM
COc1c2cc([N+](=O)[O-])cc1CNC(=O)CN1CCOCCOCCN(CCOCCOCC1)CC(=O)NC2	> 100 µM
Cc1ccc(C2CC(=O)CC(c3ccc(C)cc3)C23C(=O)NC(=O)NC3=O)cc1 (centres undefined)	> 100 µM

Now look at this entry.
O=P([O-])(O)OP(=O)([O-])O.[NH-][C@H]1CCCC[C@@H]1[NH-].[OH-].[OH-].[Pt+4] yielded TGI of > 100 µM

====

# Test system: CAKI-1 renal
# method-description: NCI tumour cell line growth inhibition, 48 h; in the data active = GI50 below about 0.43 µM; inactive = the rest
Respond only with the outcome that fits, drawn from active, inactive

# example entries with known answers
compound	target-or-system	label-class
Cc1c2cc[nH]c(=O)c2c(C)c2c1[nH]c1cc(OCCN3CCN(C)CC3)ccc12	CAKI-1 renal	inactive
Cc1ccccc1NC(=S)Nc1ccccn1	CAKI-1 renal	inactive
O=C(/C=C/c1ccc(B(O)O)cc1)/C=C/c1ccc(B(O)O)cc1	CAKI-1 renal	inactive
CNCc1cccc2c1OCCOCCN(C)C(=O)CN(C)S(=O)(=O)c1ccc(cc1)-c1cnc(N)c(n1)C(=O)N2	CAKI-1 renal	inactive
COc1ccc(-c2[nH]ncc2-c2cc3c(c(OC)c2)OCC(=O)N3)cc1	CAKI-1 renal	inactive
COc1cccc([C@H]2CC(=O)c3cc4c(cc3N2)OCO4)c1	CAKI-1 renal	active

Could you now consider this next compound?
Fill in: this test's call for CC/C(Cc1ccccc1)=C(\c1ccc(OCCN2CCCCCC2)cc1)c1ccc(OC(=O)NCc2ccccc2)cc1 is ___ inactive

====

GI50: recorded values
# Tested on: HS 578T breast
# method-description: NCI tumour cell line growth inhibition, 48 h

Answered examples (5):
compound	recorded-measurement
Cc1ccccc1NC(=S)Nc1ccccn1	> 100 µM
CC(=O)C1=C(O)C=C2Oc3c(C(=O)/C=C/c4cc(C(F)(F)F)cc(C(F)(F)F)c4)c(O)c(C)c(O)c3[C@]2(C)C1=O	0.861 µM
CC/C(Cc1ccccc1)=C(\c1ccc(OCCN2CCCCCC2)cc1)c1ccc(OC(=O)NCc2ccccc2)cc1	2.66 µM
COc1cc2c(/C=N\N=C(N)N)c(Cl)[nH]c2cc1C	10.8 µM
O=S(=O)(Nc1ncccn1)c1ccc(N=Nc2ccc(O)c3ncccc23)cc1	3 µM

O=P([O-])(O)OP(=O)([O-])O.[NH-][C@H]1CCCC[C@@H]1[NH-].[OH-].[OH-].[Pt+4] yielded GI50 of 36.1 µM

NS(=O)(=O)c1ccc(NC(=O)c2ccc(NC3=C(Cl)C(=O)N(Cc4ccccc4)C3=O)cc2)cc1 yielded GI50 of 1.64 µM

C(=Nc1ccccc1)C1CCCC[N-]1.C(=Nc1ccccc1)C1CCCC[N-]1.[Cu+2].[O-][Cl+3]([O-])([O-])O (centres undefined) yielded GI50 of 30.3 µM

Cc1nc2sccn2c1/C=C1/C(=O)Nc2ccccc21 yielded GI50 of 19.4 µM

COc1cc(C(=O)OCCCCCCCCCCC[P+](c2ccccc2)(c2ccccc2)c2ccccc2)ccc1O yielded GI50 of 0.549 µM

C=C(Cn1c(=O)c2ccccc2c2ccccc21)c1ccc(C(=O)Nc2ccccc2N)cc1 yielded GI50 of 58.2 µM

CC(C)(C)OC(=O)NCCNC1=CC(=O)c2nc3ccccc3c3ccnc1c23 yielded GI50 of 25.5 µM

Cc1cc(C)nc(NC(N)=NCCc2ccccc2)n1 yielded GI50 of 4.41 µM

CC1=C([Se]CC(OC(=O)[C@@H](CSSC(C)(C)C)NC(=O)OC(C)(C)C)C(=O)NC(C)(C)C)C(=O)c2ccccc2C1=O (some centres undefined) yielded GI50 of 1.31 µM

====

# Tested on: NCI-H522 lung
# method-description: NCI tumour cell line growth inhibition, 48 h
TGI: recorded values

molecule	TGI
O=C(Nc1c(O)[nH]c(=S)[nH]c1=O)c1ccccn1	> 100 µM

Entry COC(=O)[C@@H](NC(=O)NC(=O)NC(=O)CI)C(C)C : TGI on NCI-H522 lung = 3.31 µM

Entry O=C1Oc2ccccc2C(=O)/C1=C/N1C(=O)N/C(=C\c2ccccc2O)C1=O : TGI on NCI-H522 lung = > 100 µM

Entry O=c1c2ccccc2oc2nc3n(c(=O)c12)CCCS3 : TGI on NCI-H522 lung = > 100 µM

====

# Test system: SR leukemia
# method-description: NCI tumour cell line growth inhibition, 48 h
parameter: TGI

Answered examples (4):
molecule	recorded-measurement
N=C(c1ccccc1)N(c1ccccc1)c1ccccc1	> 100 µM
Nc1ccn(C2OC(CO)C(O)C2F)c(=O)n1 (centres undefined)	> 5000 µM
CCOC(=O)c1ccc(N=NN(C)C(=O)C(C)N)cc1 (centres undefined)	> 100 µM
O=C1N[C@H]2c3c(Cl)sc(Cl)c3/C(=N/O)[C@H]2O1	> 100 µM

CCOc1ccccc1NC(=O)CCC(=O)OC yielded TGI of > 100 µM

O=C(O)c1ccccc1Cc1ccco1 yielded TGI of > 100 µM

O=c1cnn(C/C=C\CO)c(=O)[nH]1 yielded TGI of > 100 µM

CN(C)CCCOc1ccccc1NC1=C(Cl)C(=O)C(Nc2ccccc2OCCCN(C)C)=C(Cl)C1=O yielded TGI of 5.47 µM

CO[C@H](C(=O)[C@@H](O)[C@@H](C)O)[C@@H]1Cc2cc3cc(O[C@H]4C[C@@H](O[C@H]5C[C@@H](O)[C@H](O)C(C)O5)[C@H](O)C(C)O4)c(C)c(O)c3c(O)c2C(=O)[C@H]1O[C@H]1C[C@@H](O[C@H]2C[C@@H](O[C@H]3C[C@@H](OC)[C@H](O)C(C)O3)[C@@H](O)C(C)O2)C(O)(O)C(C)O1 (some centres undefined) yielded TGI of > 25 µM
